Reference for the values: the supplement of paper PMC9170038

- System: MS2 coat protein
- testName: apparent KD of MS2 coat protein; designed switch direction (-1 OFF switch, 1 ON switch): 1; higher = weaker reporter binding
- conditionNotes: input ligand: none
Quick list: apparent KD of MS2 coat protein per entry.
Write the value in nM as a bare number.

AUACUCAUGUAAGGAUAUGCAGCCGAAACGGCUGCAGAAGGUACUAUAAUACAUGAGGAUCACCCAUGUCUCUAUUAUUUAGUU [Mat - Same State NG 1 - JL mod - D98] (Eterna round: R96, puzzle: Same State NG 1) ... 101

Quick check: apparent KD of MS2 coat protein of AGGCUCAGAGCAGGAUAUAUGUGGUCACAUGAGGAUCACCCAUGUCUCGAGCUUCGGCUCGAGGCAUAGAAGGGCUCUGAGCCA [SSNG2/5-B1] (Eterna round: R96, puzzle: Same State NG 2) ? 53.9

Field request: apparent KD of MS2 coat protein | item: AGAUGUUAAUUAGGAUAUGGUCACAUGAGGAUCACCCAUGUAACGAAGAUACGAUGUGGUCAAGACUAGAAGGGAUCGCUAACA [SameState NG2 #73] (Eterna round: R96, puzzle: Same State NG 2) 55.3

Any idea what apparent KD of MS2 coat protein was measured for CCGGAUAAUGGAGGAUAUGGAGCCUUAUUGGCUCCAGAAGGCUAACAUGAGGAUCACCCAUGUAAUCCGGCGGUCAAUAGACCG [Eli NG1ss - 65] (Eterna round: R96, puzzle: Same State NG 1) ? 25.5

Fill in the blank: the reported apparent KD of MS2 coat protein of AGAUCAUGACGAGGAUAUGGUACAUGAGGAUCACCCAUGUAUGUACCAUAACGCGUACGACGAAACCAGAAGGCGUCGUGAUCA [Mat - Same State NG 2 - JL mod - D41] (Eterna round: R96, puzzle: Same State NG 2) is ____. 20.7

Could you share which apparent KD of MS2 coat protein value was measured for GGGAGACAUGAGGAUCACCCAUGUGAGAAGAGGCGAGGAUAUCGAAAAAAAAAAAAAAAACGAGAAGGCGCGAGAU [salish99-SS1-004] (Eterna round: R96, puzzle: Same State 1) ? 115

Return reported apparent KD of MS2 coat protein; argument: GUUACAUGAGGAUCACCCAUGUAUGUGUGGGAGUAAGUGUCUUAGGAUAUCUAUGGUUUAAUUUAAGAGAAGGAAGAUUGUUGU [JMF's solution 72] (Eterna round: R96, puzzle: Same State NG 3) 96.6

I would be grateful if you could share the reported apparent KD of MS2 coat protein for GCGAAAGCGGUAGGAUAUCUAGGAUAUGGGAAGACCUAAGGUUGGAAGUCACUUCACCCAGAAGGAGAGAAGGACACCGAAAGG [pwkr ssNG2 2FMN + F9.2] (Eterna round: R96, puzzle: Same State NG 2) . 134

Record request: apparent KD of MS2 coat protein value, item CGCCCGAAUGAAGGAUAUGGUACAACACGAUGAUCAGAAGGUUAUUAAAGUGGGUGAUGCCGACAUGAGGAUCACCCAUGUUGG [Eternabot solution 40] (Eterna round: R96, puzzle: Same State NG 1) 66.9
